target: PI3K isoform δ (Homo sapiens (Human)); assay: TR-FRET assay of enzymatic activity of class I PI3K isoforms; settings: read-out: IC50 (nM) for PI3K isoform δ (Table 3); TR-FRET; 2× Km ATP, 2 μM PIP2; incubated for 30 minutes at 25° C.
Exercise: state measured IC50 for each of the molecules provided.
Numbers only, in nM.

N#Cc1c(N)nc(N)nc1N1CCC[C@H]1c1nc2cccc(Cl)c2c(=O)n1-c1cc(F)cc(F)c1 [Compound 83]	2
N#Cc1c(N)nc(N)nc1N1CCC[C@H]1c1nc2c(Cl)cccc2c(=O)n1-c1cc(F)cc(F)c1 [Compound 85]	10
C[C@H](Nc1nc(N)nc(N)c1C#N)c1nc2cccc(OCCC3CCCN3C)c2c(=O)n1-c1ccccc1 (stereo partly shown) [Compound 33]	24

## Input Given N#Cc1c(N)nc(N)nc1N1CCC[C@H]1c1nc2c(C#N)cccc2c(=O)n1-c1cccc(C(F)F)c1 [Compound 90] , report its IC50 on PI3K isoform δ (Homo sapiens (Human)).
## Output 5

---

target: PI3K isoform δ (Homo sapiens (Human), UniProt O00329); experiment: TR-FRET assay of enzymatic activity of class I PI3K isoforms; conditions: read-out: IC50 (nM) for PI3K isoform δ (Table 3); TR-FRET; 2× Km ATP, 2 μM PIP2; incubated for 30 minutes at 25° C.
Sequence (O00329 whole entry, canonical isoform): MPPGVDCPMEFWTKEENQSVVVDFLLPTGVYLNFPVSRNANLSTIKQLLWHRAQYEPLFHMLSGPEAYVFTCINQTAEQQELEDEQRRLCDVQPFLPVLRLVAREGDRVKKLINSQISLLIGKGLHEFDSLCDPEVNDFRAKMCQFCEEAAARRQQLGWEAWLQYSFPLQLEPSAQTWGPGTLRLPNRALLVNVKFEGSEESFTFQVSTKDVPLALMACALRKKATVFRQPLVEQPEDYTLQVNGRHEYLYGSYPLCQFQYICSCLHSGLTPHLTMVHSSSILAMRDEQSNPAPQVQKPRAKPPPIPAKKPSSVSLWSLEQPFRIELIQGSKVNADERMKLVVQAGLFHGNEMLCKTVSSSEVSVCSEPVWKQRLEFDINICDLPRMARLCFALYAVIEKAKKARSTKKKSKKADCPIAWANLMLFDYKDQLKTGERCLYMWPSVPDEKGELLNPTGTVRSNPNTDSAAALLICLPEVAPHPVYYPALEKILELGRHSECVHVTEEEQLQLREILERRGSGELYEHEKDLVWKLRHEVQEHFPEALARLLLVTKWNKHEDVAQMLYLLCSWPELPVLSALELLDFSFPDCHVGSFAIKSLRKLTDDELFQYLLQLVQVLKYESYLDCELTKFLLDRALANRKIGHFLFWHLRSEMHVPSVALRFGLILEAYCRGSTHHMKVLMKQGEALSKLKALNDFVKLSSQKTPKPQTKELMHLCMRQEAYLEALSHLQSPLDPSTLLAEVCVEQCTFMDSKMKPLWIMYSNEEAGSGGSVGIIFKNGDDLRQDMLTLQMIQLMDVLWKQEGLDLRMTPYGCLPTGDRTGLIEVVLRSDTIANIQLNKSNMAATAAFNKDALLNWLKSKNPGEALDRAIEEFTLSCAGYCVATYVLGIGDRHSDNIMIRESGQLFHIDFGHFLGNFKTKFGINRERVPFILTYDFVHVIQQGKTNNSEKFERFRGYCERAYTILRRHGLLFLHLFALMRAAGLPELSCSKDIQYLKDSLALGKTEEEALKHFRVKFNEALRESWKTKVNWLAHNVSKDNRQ
Sequence (P27986 whole entry partner, canonical isoform): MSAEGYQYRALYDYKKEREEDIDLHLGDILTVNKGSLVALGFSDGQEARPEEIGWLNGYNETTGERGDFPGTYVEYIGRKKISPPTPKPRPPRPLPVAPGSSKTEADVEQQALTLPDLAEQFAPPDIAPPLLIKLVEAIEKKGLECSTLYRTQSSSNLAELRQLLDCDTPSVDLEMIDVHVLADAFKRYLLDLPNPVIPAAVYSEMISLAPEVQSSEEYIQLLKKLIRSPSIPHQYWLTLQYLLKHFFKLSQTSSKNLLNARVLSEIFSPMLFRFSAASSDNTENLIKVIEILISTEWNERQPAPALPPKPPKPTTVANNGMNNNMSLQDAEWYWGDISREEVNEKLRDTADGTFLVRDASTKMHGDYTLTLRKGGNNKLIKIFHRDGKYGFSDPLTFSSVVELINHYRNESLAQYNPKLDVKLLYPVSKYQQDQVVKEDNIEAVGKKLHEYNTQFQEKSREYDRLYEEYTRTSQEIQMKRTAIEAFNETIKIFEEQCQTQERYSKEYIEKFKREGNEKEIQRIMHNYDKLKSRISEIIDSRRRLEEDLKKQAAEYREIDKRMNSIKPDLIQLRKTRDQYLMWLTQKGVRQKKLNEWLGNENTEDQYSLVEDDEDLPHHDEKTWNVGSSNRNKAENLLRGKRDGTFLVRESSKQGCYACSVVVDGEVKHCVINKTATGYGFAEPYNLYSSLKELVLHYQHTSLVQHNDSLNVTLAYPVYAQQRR
Measured parameter: IC50
I'd appreciate it if you included the unit after the number.

N#Cc1c(N)nc(N)nc1N1CCC[C@H]1c1nc2c(Cl)ccc(Cl)c2c(=O)n1-c1cccc(S(N)(=O)=O)c1 [Compound 91]	17 nM
C[C@H](Nc1nc(N)nc(N)c1Cl)c1nc2c(F)ccc(CCC(N)=O)c2c(=O)n1-c1cc(F)cc(F)c1 [Compound 41]	25 nM
N#Cc1c(N)nc(N)nc1N1C[C@H](NC(=O)CC2CC2)C[C@H]1c1nc2cccc(Cl)c2c(=O)n1-c1ccccc1 [Compound 114]	0.9 nM
C[C@H](Nc1nc(N)nc(N)c1C#N)c1nc2cccc(CCCN3CCOC(C)(C)C3)c2c(=O)n1-c1ccccc1 [Compound 52]	0.7 nM
N#Cc1c(N)nc(N)nc1N1C[C@H](NC(=O)C(F)F)C[C@H]1c1nc2cccc(Cl)c2c(=O)n1-c1cc(F)cc(F)c1 [Compound 109]	0.7 nM

Quick one: give me IC50 for each item below, same order please.
1. C[C@H](Nc1nc(N)nc(Cl)c1C#N)c1nc2c(F)ccc(Cl)c2c(=O)n1-c1ccccc1 [Compound 66]
2. C[C@H](Nc1nc(N)nc(N)c1C#N)c1nc2cccc(OCCN3CCCCC3)c2c(=O)n1-c1ccccc1 [Compound 30]

## Output
1: 0.7 nM; 2: 6 nM

---

Exercise: state measured pIC50 for each of the molecules provided.
biological target: PI3K isoform δ (Homo sapiens (Human), UniProt O00329); experiment: TR-FRET assay of enzymatic activity of class I PI3K isoforms
Give bare numbers, as −log10 of the molar value.

These solved cases illustrate the format of a correct answer.
N#Cc1c(N)nc(N)nc1N1CCC[C@H]1c1nc2cccc(S(=O)(=O)c3ccccc3)c2c(=O)n1-c1cccc(F)c1 [Compound 77]	8.70
N#Cc1c(N)nc(N)nc1NC(c1nc2cccc(F)c2c(=O)n1-c1cccc(F)c1)C1CC1 (single isomer, unassigned) [Compound 15a]	8.22

Attention now shifts to the item below.
## Input Please report the measured pIC50 for CO[C@H]1C[C@@H](c2nc3cccc(Cl)c3c(=O)n2-c2cc(F)cc(F)c2)N(c2nc(N)nc(N)c2C#N)C1 [Compound 19]
## Output 8.05

---

biological target: PI3K isoform δ (Homo sapiens (Human)); assay: TR-FRET assay of enzymatic activity of class I PI3K isoforms; conditions: read-out: IC50 (nM) for PI3K isoform δ (Table 3); TR-FRET; 2× Km ATP, 2 μM PIP2; incubated for 30 minutes at 25° C.
Exercise: state measured log10 IC50 for each of the compounds provided.
Please note: log10 values; quantity IC50; unit nM.

These solved cases illustrate the format of a correct answer.
C[C@@H]1C[C@@H](c2nc3cccc(Cl)c3c(=O)n2-c2ccccc2)N(c2nc(N)nc(N)c2C#N)C1	0.30
C[C@H](Nc1nc(N)nc(N)c1C#N)c1nc2cccc(CCCN3CCC(F)(F)CC3)c2c(=O)n1-c1ccccc1	-0.30
N#Cc1c(N)nc(N)nc1N1CCC[C@H]1c1nc2c(Cl)ccc(Cl)c2c(=O)n1-c1cccc(S(N)(=O)=O)c1 (single isomer, unassigned) [Compound 92]	0.85
CS(=O)(=O)c1cccc2nc([C@@H]3CCCN3c3nc(N)nc(N)c3C#N)n(-c3ccccc3F)c(=O)c12 (atropisomer, axis not shown) [Compound 74]	0.48

Quick one: give me log10 IC50 for each item below, same order please.
1. N#Cc1c(N)nc(N)nc1N1C[C@H](NC(=O)CN)C[C@H]1c1nc2cccc(Cl)c2c(=O)n1-c1cc(F)cc(F)c1
2. CC(Cc1cccc2nc([C@H](C)Nc3nc(N)nc(N)c3C#N)n(-c3ccccc3)c(=O)c12)N1CCCC1 (stereo partly drawn)

## Output
1. 0.85
2. -0.15

---

molecular target: PI3K isoform δ (Homo sapiens (Human)); test: TR-FRET assay of enzymatic activity of class I PI3K isoforms; details: read-out: IC50 (nM) for PI3K isoform δ (Table 3); TR-FRET; 2× Km ATP, 2 μM PIP2; incubated for 30 minutes at 25° C.
Exercise: state measured IC50 for each of the compounds provided.
Numbers only, in nM.

These solved cases illustrate the format of a correct answer.
C[C@H](Nc1nc(N)nc(N)c1C#N)c1nc2cccc(S(=O)(=O)CCO)c2c(=O)n1-c1cccc(F)c1	9
C[C@H](Nc1nc(N)nc(N)c1C#N)c1nc2cccc(CCCN3CCOCC3(C)C)c2c(=O)n1-c1ccccc1	0.7
CC1COCC(C)N1CCCc1cccc2nc([C@H](C)Nc3nc(N)nc(N)c3C#N)n(-c3ccccc3)c(=O)c12 (stereo partly shown)	1.4

Quick one: give me IC50 for each item below, same order please.
1. CS(=O)(=O)c1cccc2nc([C@@H]3CCCN3c3nc(N)nc(N)c3C#N)n(-c3c(F)cccc3F)c(=O)c12
2. C[C@H](Nc1nc(N)nc(Cl)c1C#N)c1nc2cccc(Cl)c2c(=O)n1-c1ccccc1
3. C[C@H](Nc1nc(N)nc(N)c1C#N)c1nc2cccc(OCCN3CCOCC3)c2c(=O)n1-c1ccccc1
4. CS(=O)(=O)c1cccc2nc([C@@H]3CCCN3c3nc(N)nc(N)c3C#N)n(-c3ccccc3F)c(=O)c12 (atropisomer, axis not shown) [Compound 73]

## Output
1. 1.2
2. 1
3. 22
4. 4

---

biological target: PI3K isoform δ (Homo sapiens (Human)); assay: TR-FRET assay of enzymatic activity of class I PI3K isoforms; conditions: read-out: IC50 (nM) for PI3K isoform δ (Table 3); TR-FRET; 2× Km ATP, 2 μM PIP2; incubated for 30 minutes at 25° C.
Please use 1 for IC50 under 2 nM and 0 for everything else, ties included.

Example entries begin here.
C[C@H](Nc1nc(N)nc(N)c1C#N)c1nc2cccc(CCCC3CCCCC3)c2c(=O)n1-c1ccccc1	0
N#Cc1c(Cl)nc(N)nc1N[C@H](c1nc2cccc(CCCN3CCCC3)c2c(=O)n1-c1ccccc1)C1CC1	0
Cc1ccccc1S(=O)(=O)c1cccc2nc([C@H](C)Nc3nc(N)nc(N)c3C#N)n(-c3cccc(F)c3)c(=O)c12	0
C[C@H](Nc1nc(N)nc(N)c1C#N)c1nc2cccc(CCCN3CC4(COC4)C3)c2c(=O)n1-c1ccccc1	1

## Input Hello, I'm reviewing records and need to know if IC50 of C[C@H](Nc1nc(N)nc(N)c1C#N)c1nc2cccc(CCCN3CCCCC3)c2c(=O)n1-c1ccccc1 is below 2 nM. Could you check?
## Output 1

## Input Hello, I'm reviewing records and need to know if IC50 of N#Cc1c(N)nc(N)nc1N1C[C@H](NC(=O)C(F)F)C[C@H]1c1nc2cccc(F)c2c(=O)n1-c1cc(F)cc(F)c1 is below 2 nM. Could you check?
## Output 0

## Input Hello, I'm reviewing records and need to know if IC50 of Cc1nc(N)c(Br)c(N[C@@H](C)c2nc3cccc(Cl)c3c(=O)n2-c2ccccc2)n1 is below 2 nM. Could you check?
## Output 0

## Input Hello, I'm reviewing records and need to know if IC50 of C[C@H](Nc1nc(N)nc(N)c1C#N)c1nc2cccc(CCCN3CC(F)(F)OC(F)(F)C3)c2c(=O)n1-c1ccccc1 is below 2 nM. Could you check?
## Output 1

## Input Hello, I'm reviewing records and need to know if IC50 of N#Cc1c(N)nc(N)nc1N1CCC[C@H]1c1nc2cccc(F)c2c(=O)n1-c1cc(F)cc(F)c1 is below 2 nM. Could you check?
## Output 0
